IC50 values by entry
# Target Of Assay: UniProt:P08684
# Sequence (P08684 whole entry): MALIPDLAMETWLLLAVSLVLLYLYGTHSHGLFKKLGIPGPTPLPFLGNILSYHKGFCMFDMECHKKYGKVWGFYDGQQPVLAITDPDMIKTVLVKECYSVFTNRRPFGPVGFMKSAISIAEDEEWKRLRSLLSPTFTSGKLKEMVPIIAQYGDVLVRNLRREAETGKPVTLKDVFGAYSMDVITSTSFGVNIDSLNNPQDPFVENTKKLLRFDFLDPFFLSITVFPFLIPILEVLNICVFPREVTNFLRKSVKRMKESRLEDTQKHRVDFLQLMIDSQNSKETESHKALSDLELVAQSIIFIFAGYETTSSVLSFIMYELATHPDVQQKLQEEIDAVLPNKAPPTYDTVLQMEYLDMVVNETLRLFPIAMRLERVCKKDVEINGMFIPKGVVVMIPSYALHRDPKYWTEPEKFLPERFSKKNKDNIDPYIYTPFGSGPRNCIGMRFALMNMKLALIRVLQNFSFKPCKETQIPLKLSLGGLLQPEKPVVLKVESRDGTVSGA
# Experiment Description: Inhibition of CYP3A4 under preincubation conditions
# Format: ADME
# Condition Label: read-out: INH

// below: answered compounds
Compound: c1ccc(C2CN(c3nnc(N4CCC(N5CCCCC5)CC4)s3)CCO2)nc1 (single isomer, unassigned; enantiomer 2)
Target Of Assay: UniProt:P08684
Measured Value: > 20 µM
//
Compound: C1=C(c2ccccn2)CCCN1c1nnc(N2CCC(N3CCCCC3)CC2)s1
Target Of Assay: UniProt:P08684
Measured Value: > 20 µM

Ask | Which measured IC50 value corresponds to FC1(c2ccccn2)CCCN(c2nnc(N3CCC(N4CCCCC4)CC3)s2)C1 (stereo not drawn) ?
Reply | > 20 µM

Hello, the source for this data is ChEMBL document CHEMBL2046373, in case you need it.
